experiment: in vivo; conditions: male, Sprague-Dawley, rat, iv, 10 mg/kg, Vss
Measure: Vd (L/kg)
Please respond with the number in L/kg and leave the unit unwritten.

Given item `CCCCCCCCCCCCCCCCOCCCOP(=O)(O)CO[C@H](CO)Cn1ccc(N)nc1=O` , the value recorded as its Vd is 3.7

----------
test: in vivo; conditions: male, Sprague-Dawley, rat, po, 10 mg/kg, MRTInf
Measure: MRT inf (h)
Please respond with the number in h and leave the unit unwritten.

CCCCCCCCCCCCCCCCOCCCOP(=O)(O)CO[C@H](CO)Cn1ccc(N)nc1=O | 6.9

Given item `CCCCCCCCCCCCCCCCOCCCOP(=O)(O)OCC1=C[C@H](O)[C@H](n2cnc3c(=O)[nH]c(N)nc32)O1` , the value recorded as its MRT inf is 5.2

These data points were gathered from patent US12466849B2.
